All figures here come from patent US20190135908A1.

Entries and their Kd
- studyTarget: T1, Rat GDF15 HIS: HIS-tagged rat GDF15 (rat, UniProt Q9Z0J6 189-303, limits assumed)
- T1 construct: also called Rat His-GDF15; not shown: His tag
- T1 sequence (looked up): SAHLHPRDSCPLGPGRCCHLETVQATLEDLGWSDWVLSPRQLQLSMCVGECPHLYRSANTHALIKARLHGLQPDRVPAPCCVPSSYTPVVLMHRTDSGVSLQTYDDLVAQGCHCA
- assayName: Biacore SPR, IgG captured via anti-human Fc, GDF15 in flow
I only need the number, in nM, no unit after it.

binder	Kd / nM
ABGDF15-B (antibody, human IgG1, lambda, V domains shown, captured through anti-human Fc in the Biacore assay) VH: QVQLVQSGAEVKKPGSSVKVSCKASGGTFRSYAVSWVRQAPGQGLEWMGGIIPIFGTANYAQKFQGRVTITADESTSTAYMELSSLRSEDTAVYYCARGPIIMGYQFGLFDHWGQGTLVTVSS VL: SYELTQPLSVSVALGQTARITCSGDNIGSHIVSWYQQKPGQAPVLVIYDKSNRPSGIPERFSGSNSGNTATLTISRAQAGDEADYYCQTWDSIGSVVFGGGTKLTVLG	0.097
ABGDF15-G (antibody, human IgG1, kappa, V domains shown, captured through anti-human Fc in the Biacore assay) VH: QVQLVQSGAEVKKPGSSVKVSCKASGGTFSSHYINWVRQAPGQGLEWMGGIIPAFGGANYAQKFQGRVTITADESTSTAYMELSSLRSEDTAVYYCARFGSVYVSRYSSYYHMDVWGQGTLVTVSS VL: DIQMTQSPSSLSASVGDRVTITCRASQTIYRSLAWYQQKPGKAPKLLIYGASILQSGVPSRFSGSGSGTDFTLTISSLQPEDFATYYCLQRYTSPFTFGQGTKVEIKR	0.138
ABGDF15-E (antibody, human IgG1, lambda, V domains shown, captured through anti-human Fc in the Biacore assay) VH: EVQLVQSGAEVKKPGESLKISCKGSGYSFTSYWIGWVRQMPGKGLEWMGVIDPGGSYTIYSPSFQGQVTISADKSISTAYLQWSSLKASDTAMYYCARYGRYGTYFDYWGQGTLVTVSS VL: QSVLTQPPSVSGAPGQRVTISCSGSSSNIGVLYVNWYQQLPGTAPKLLIYSNDNRPSGVPDRFSGSKSGTSASLAITGLQAEDEADYYCQSWDSSSNYVFGGGTKLTVLG	0.0396

API: the following record is the query input.
Supply recorded Kd for ABGDF15-A (antibody, human IgG1, kappa, V domains shown, captured through anti-human Fc in the Biacore assay) VH: EVQLVQSGAEVKKPGESLKISCKGSGYSFTDYWISWVRQMPGKGLEWMGIIDPSGSYTIYSPSFQGQVTISADKSISTAYLQWSSLKASDTAMYYCARVSYYGGYFDIWGQGTLVTVSS VL: DIQMTQSPSSLSASVGDRVTITCRASQSISNNLNWYQQKPGKAPKLLIYAASNLQSGVPSRFSGSGSGTDFTLTISSLQPEDFATYYCFQLDHSPFTFGQGTKVEIKR here.
0.0232
